Test system: Plasmodium falciparum
Test: Antimalarial activity against Plasmodium falciparum 3D7 asexual cultures grown under 5% haematocrit assessed as decrease in parasite DNA level by flow cytometry
Assay type: functional, organism-based
Friendly reminder: IC50 below 5 µM is yes, at or above is no.

entry_smiles	qualitative_label
N=C(N)c1ccc(-c2nc(-c3ccccc3)c[nH]2)cc1	no
N=C(N)c1ccc(-c2ccc(-c3ccccc3)s2)cc1	no
N=C(N)c1ccc(-c2ccc(-c3ccccc3)o2)cc1	yes
N=C(N)c1ccc(-c2ccc(-c3ccc(C(=N)N)cc3)o2)cc1	yes
CC(=N)Nc1ccc(-c2ccc(-c3ccccc3)o2)cc1	yes

Data request: Hello, is IC50 of the following compound strictly smaller than 5 µM? CC(=N)Nc1ccc(-c2ccc(-c3ccccc3)s2)cc1
Data returned: yes
